FYI, the data here is from paper PMC6212790.

# measured_target: GST-Rok (full length) (Bacillus subtilis subsp. subtilis str. …, UniProt O34857 1-191)
# Sequence: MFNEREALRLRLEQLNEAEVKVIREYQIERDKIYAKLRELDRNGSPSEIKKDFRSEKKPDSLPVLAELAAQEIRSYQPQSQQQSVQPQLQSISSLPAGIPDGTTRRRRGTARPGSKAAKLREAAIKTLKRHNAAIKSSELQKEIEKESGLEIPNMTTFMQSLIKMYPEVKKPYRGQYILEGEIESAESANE
# procedure_summary: protein binding microarray; high values mean tight binding
# test_conditions: protein: recombinant; tags: GST (pTH5325, pDEST15-Magic modified); dsDNA, one strand shown
Whole data set: some 33,000 sequences, median “e-score” near -0.037, cut for the highest 2% near 0.34. The full list was thinned out, with the highest values kept by preference.
Measured binding signal accompanies every entry in the list below.

# annotated cases, reported binding signal shown
[[record]]
residue_sequence = "AGCTGGGG"
value_measured = "-0.188 E-score"

[[record]]
residue_sequence = "AATAGTTA"
value_measured = "0.372 E-score"


Ask: Sample TAAGAGCA — what was its binding signal?
Result: -0.127 E-score

* * *

# measured_target: GST-Rok (full length) (Bacillus subtilis subsp. subtilis str. …, UniProt O34857 1-191)
# Sequence: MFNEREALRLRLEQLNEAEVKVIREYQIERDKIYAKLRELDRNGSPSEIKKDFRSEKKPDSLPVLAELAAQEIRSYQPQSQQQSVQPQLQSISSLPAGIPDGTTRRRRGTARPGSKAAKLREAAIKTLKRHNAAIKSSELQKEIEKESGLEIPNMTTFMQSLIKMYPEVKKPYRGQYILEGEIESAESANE
# procedure_summary: protein binding microarray; Rok is a gene silencer of Bacillus subtilis; high values mean tight binding
# test_conditions: protein: recombinant; tags: GST (pTH5325, pDEST15-Magic modified); dsDNA, one strand shown
Over roughly 33,000 sequences, “e-score” has its median near -0.037; the highest 2% begin near 0.34. The sample holds the highest values, similar sequences and a random draw of the others, so the mix is not that of the screen.
Label true (1) when binding signal is strictly below 0.04 E-score; at or above that, label false (0).

Look over these answered cases.
[[record]]
residue_sequence = "ACAACTAC"
measured_target = "GST-Rok (full length) (Bacillus subtilis subsp. subtilis str. …, UniProt O34857 1-191)"
class_name = "false (0)"

[[record]]
residue_sequence = "AAACCTAA"
measured_target = "GST-Rok (full length) (Bacillus subtilis subsp. subtilis str. …, UniProt O34857 1-191)"
class_name = "false (0)"

[[record]]
residue_sequence = "GACTACAA"
measured_target = "GST-Rok (full length) (Bacillus subtilis subsp. subtilis str. …, UniProt O34857 1-191)"
class_name = "false (0)"

[[record]]
residue_sequence = "TGATAAAA"
measured_target = "GST-Rok (full length) (Bacillus subtilis subsp. subtilis str. …, UniProt O34857 1-191)"
class_name = "false (0)"

[[record]]
residue_sequence = "CCGCTCAG"
measured_target = "GST-Rok (full length) (Bacillus subtilis subsp. subtilis str. …, UniProt O34857 1-191)"
class_name = "true (1)"

[[record]]
residue_sequence = "CACAACCG"
measured_target = "GST-Rok (full length) (Bacillus subtilis subsp. subtilis str. …, UniProt O34857 1-191)"
class_name = "true (1)"


Please examine the following record next.
Ask: Would you kindly verify if binding signal of GCAACTGA is strictly less than 0.04 E-score?
Result: true (1)
